Molecular target: Flavin reductase (NADPH) (Homo sapiens, UniProt P30043)
Sequence (P30043 whole entry): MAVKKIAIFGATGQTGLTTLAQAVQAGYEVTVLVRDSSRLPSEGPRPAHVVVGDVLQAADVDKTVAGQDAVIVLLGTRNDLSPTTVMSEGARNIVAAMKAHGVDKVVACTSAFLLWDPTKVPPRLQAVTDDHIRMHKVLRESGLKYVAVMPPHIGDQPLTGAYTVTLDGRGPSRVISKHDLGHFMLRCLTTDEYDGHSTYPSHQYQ
Assay: Binding affinity to human N-terminal His6-tagged and thrombin cleavage fused BLVRB expressed in Escherichia coli BL21 (DE3) assessed as dissociation constant by isothermal titration calorimetry
experimentalEndpoint: Kd (nM)

Answered cases to consult:
O=C(O)c1ccc(-n2nc(-c3ccccc3O)nc2-c2ccccc2O)cc1 [DEFERASIROX]; 1710
O=C(O)c1c(Cl)c(Cl)c(Cl)c(Cl)c1-c1c2cc(Br)c(=O)c(Br)c-2oc2c(Br)c(O)c(Br)cc12; 1360

P = Cc1nc(-c2ccc(OCC(C)C)c(C#N)c2)sc1C(=O)O [FEBUXOSTAT]
Q = O=C(O)c1cccc(-c2noc(-c3ccccc3F)n2)c1
Record comparison, field Kd: mark the lower of P and Q . Your answer should be the label attached to the chosen record.
Q

###

Target: Flavin reductase (NADPH) (Homo sapiens) (UniProt P30043)
Sequence (whole entry): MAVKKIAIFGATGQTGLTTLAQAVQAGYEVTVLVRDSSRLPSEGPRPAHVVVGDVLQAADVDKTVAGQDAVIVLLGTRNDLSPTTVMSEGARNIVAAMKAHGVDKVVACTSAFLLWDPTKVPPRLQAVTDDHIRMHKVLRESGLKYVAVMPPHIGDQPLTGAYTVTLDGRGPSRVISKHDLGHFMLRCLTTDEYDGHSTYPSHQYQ
Test: Binding affinity to human N-terminal His6-tagged and thrombin cleavage fused BLVRB expressed in Escherichia coli BL21 (DE3) assessed as change in entropy by isothermal titration calorimetry
experimentalEndpoint: TdeltaS (kcal/mol)

Answered cases to consult:
O=C(O)c1ccc(-n2nc(-c3ccccc3O)nc2-c2ccccc2O)cc1; 0.55
O=C1OC2(c3ccccc31)c1cc(I)c(O)c(I)c1Oc1c2cc(I)c(O)c1I; 2.91
O=C(O)c1c(Cl)c(Cl)c(Cl)c(Cl)c1-c1c2cc(Br)c(=O)c(Br)c-2oc2c(Br)c(O)c(Br)cc12; 4.12

I = Cc1nc(-c2ccc(OCC(C)C)c(C#N)c2)sc1C(=O)O
II = O=C(O)c1cc(/N=N/c2ccc(S(=O)(=O)Nc3ccccn3)cc2)ccc1O
III = CC1(C)CCC(C)(C)c2cc(NC(=O)c3ccc(C(=O)O)cc3)ccc21
IV = O=C(O)c1cccc(-c2noc(-c3ccccc3F)n2)c1
Ascending sort, TdeltaS. List the labels in the requested order.
IV, II, I, III
(IV: -1.83 kcal/mol, II: -0.76 kcal/mol, I: 2.14 kcal/mol, III: 3.5 kcal/mol)

###

target: UniProt P30043; assay: Binding affinity to human N-terminal His6-tagged and thrombin cleavage fused BLVRB expressed in Escherichia coli BL21 (DE3) assessed as change in gibbs free energy by isothermal titration calorimetry
experimentalEndpoint: deltaG (kcal/mol)

CC1(C)CCC(C)(C)c2cc(NC(=O)c3ccc(C(=O)O)cc3)ccc21; -7.99
O=C(O)c1cccc(-c2noc(-c3ccccc3F)n2)c1; -9.13
O=C(O)c1ccc(-n2nc(-c3ccccc3O)nc2-c2ccccc2O)cc1; -7.87
O=C(O)c1cc(/N=N/c2ccc(S(=O)(=O)Nc3ccccn3)cc2)ccc1O; -8.67
Cc1nc(-c2ccc(OCC(C)C)c(C#N)c2)sc1C(=O)O; -7.9
O=C1OC2(c3ccccc31)c1cc(I)c(O)c(I)c1Oc1c2cc(I)c(O)c1I; -9.28
O=C(O)c1c(Cl)c(Cl)c(Cl)c(Cl)c1-c1c2cc(Br)c(=O)c(Br)c-2oc2c(Br)c(O)c(Br)cc12; -8

###

target: Flavin reductase (NADPH) (Homo sapiens) (UniProt P30043); assay: Binding affinity to human N-terminal His6-tagged and thrombin cleavage fused BLVRB expressed in Escherichia coli BL21 (DE3) assessed as change in enthalpy by isothermal titration calorimetry
experimentalEndpoint: deltaH (kJ/mol)

a = O=C1OC2(c3ccccc31)c1cc(I)c(O)c(I)c1Oc1c2cc(I)c(O)c1I [ERYTHROSINE]
b = O=C(O)c1cccc(-c2noc(-c3ccccc3F)n2)c1
Record comparison, field deltaH: mark the lower of a and b . Your answer should be the label attached to the chosen record.
b
(b: -45.9 kJ/mol, a: -26.7 kJ/mol)

###

Target: Flavin reductase (NADPH) (Homo sapiens) (UniProt P30043)
Sequence (whole entry): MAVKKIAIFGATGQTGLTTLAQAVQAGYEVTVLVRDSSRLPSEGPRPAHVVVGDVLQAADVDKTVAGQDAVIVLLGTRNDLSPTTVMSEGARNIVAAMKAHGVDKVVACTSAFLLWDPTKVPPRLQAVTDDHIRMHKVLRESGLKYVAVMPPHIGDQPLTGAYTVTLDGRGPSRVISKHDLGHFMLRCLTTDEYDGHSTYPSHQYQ
Test: Binding affinity to human N-terminal His6-tagged and thrombin cleavage fused BLVRB expressed in Escherichia coli BL21 (DE3) assessed as change in enthalpy by isothermal titration calorimetry
experimentalEndpoint: deltaH (kJ/mol)

O=C(O)c1cc(/N=N/c2ccc(S(=O)(=O)Nc3ccccn3)cc2)ccc1O; -39.5
Cc1nc(-c2ccc(OCC(C)C)c(C#N)c2)sc1C(=O)O [FEBUXOSTAT]; -24.1
O=C(O)c1c(Cl)c(Cl)c(Cl)c(Cl)c1-c1c2cc(Br)c(=O)c(Br)c-2oc2c(Br)c(O)c(Br)cc12; -16.2

P = O=C(O)c1ccc(-n2nc(-c3ccccc3O)nc2-c2ccccc2O)cc1 [DEFERASIROX]
Q = CC1(C)CCC(C)(C)c2cc(NC(=O)c3ccc(C(=O)O)cc3)ccc21
Record comparison, field deltaH: mark the lower of P and Q . Your answer should be the label attached to the chosen record.
P
